Entries and their EC50
biological target: Free fatty acid receptor 1 (Homo sapiens); experiment: Agonist activity at human GPR40 expressed in HEK293 cells by Fluo4-AM dye based intracellular calcium flux assay
Sequence (O14842 whole entry): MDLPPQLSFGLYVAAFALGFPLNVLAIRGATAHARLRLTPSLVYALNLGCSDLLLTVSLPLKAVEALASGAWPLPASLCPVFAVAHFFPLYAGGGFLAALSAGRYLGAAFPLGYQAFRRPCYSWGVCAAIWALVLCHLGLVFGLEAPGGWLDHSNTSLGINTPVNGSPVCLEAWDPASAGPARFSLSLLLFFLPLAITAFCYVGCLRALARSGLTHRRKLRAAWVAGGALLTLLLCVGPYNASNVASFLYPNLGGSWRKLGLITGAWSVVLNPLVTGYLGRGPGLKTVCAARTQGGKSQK
Kindly answer with a numeric value in µM, unit omitted.

Completed entries (count: 2):
molecule=CCCCC/C=C\C/C=C\CCCCCCCC(=O)O value_type=EC50 recorded_value=6.04
molecule="Cc1cc(OCCCN2CCOCC2)cc(C)c1-c1cccc(COc2ccc([S+]([O-])CC(=O)O)cc2)c1 (racemic)" value_type=EC50 recorded_value=0.0667

Shift focus to the following entry.
The reported value for Cc1cccc(C)c1-c1cccc(COc2ccc(S(=O)(=O)CC(=O)O)cc2)c1 in terms of EC50 is 0.252
